Values were extracted from PubChem BioAssay (Tox21).

Experiment: qHTS assay to identify small molecule antagonists of the estrogen receptor beta (ER-beta) signaling pathway - cell viability counter screen (AID 1259382);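 further: HEK293T cells carrying ER-beta-UAS-bla reporter stimulated with estradiol; nearly all actives have a fitted effect of over 55% in size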
Details: ER-beta-UAS-bla HEK293T viability, CellTiter-Glo luminescence, 16 h; series mostly up to 92.4 µM
Records with an inconclusive call do not appear. The source made the active and inactive calls. The call rests on the fitted dose curve; in most records, active means well fitted cell-killing curve with a large enough effect in the repeat runs; inconclusive means weak or mixed curves; inactive means flat fitted curve, though single readings scatter.
assay.endpoint: outcome

Please review the following examples before continuing.
C[C@]12C=CC(=O)C=C1CC[C@@H]1[C@@H]2C(=O)C[C@@]2(C)[C@H]1CC[C@]2(O)C(=O)CO	inactive
CCCCCCCCCCCCCCCCCC(=O)OCC(O)CO (stereo unspecified)	inactive
C[C@]12CC[C@@H]3c4ccc(O)cc4CC[C@H]3[C@@H]1CCC2=O	inactive
Nc1cccc(N)c1	inactive
OC[C@@H](O)[C@@H](O)[C@H](O)[C@H](O)CO	inactive

Please find the next compound below.
Inquiry: Requested read-out: outcome. Entry: `CN(C)Cc1cc(CN(C)C)c(O)c(CN(C)C)c1`
Reply text: inactive
